Source: paper PMC10731637

- assay system: Cytochrome P450 2A6 (CYP2A6) (Homo sapiens)
- Sequence (P11509 whole entry): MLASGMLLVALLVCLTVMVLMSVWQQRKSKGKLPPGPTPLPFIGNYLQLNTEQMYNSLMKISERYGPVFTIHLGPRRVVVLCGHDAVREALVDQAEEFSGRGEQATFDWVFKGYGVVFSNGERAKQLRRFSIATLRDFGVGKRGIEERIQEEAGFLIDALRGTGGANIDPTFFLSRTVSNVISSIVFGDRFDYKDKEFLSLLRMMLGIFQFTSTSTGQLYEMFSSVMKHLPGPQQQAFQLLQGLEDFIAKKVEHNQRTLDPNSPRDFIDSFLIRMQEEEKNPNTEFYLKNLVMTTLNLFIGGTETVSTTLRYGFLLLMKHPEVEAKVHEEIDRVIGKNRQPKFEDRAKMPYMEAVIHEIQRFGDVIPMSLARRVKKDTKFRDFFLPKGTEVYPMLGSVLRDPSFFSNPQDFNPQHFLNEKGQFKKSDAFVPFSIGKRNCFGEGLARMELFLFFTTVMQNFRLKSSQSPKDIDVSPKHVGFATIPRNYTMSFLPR
quantity name: IC50 (µM)
The figure you give is taken to be in µM; do not add the unit.

Consider the compound shown here: CCOC(=O)COc1ccccc1-c1cc(=O)c2ccccc2o1 What is its recorded IC50?
37.9
